Reference source for all entries: patent US20240124456A1

Target: dopamine D2 receptors (Homo sapiens (Human), UniProt P14416)
Sequence (P14416 whole entry): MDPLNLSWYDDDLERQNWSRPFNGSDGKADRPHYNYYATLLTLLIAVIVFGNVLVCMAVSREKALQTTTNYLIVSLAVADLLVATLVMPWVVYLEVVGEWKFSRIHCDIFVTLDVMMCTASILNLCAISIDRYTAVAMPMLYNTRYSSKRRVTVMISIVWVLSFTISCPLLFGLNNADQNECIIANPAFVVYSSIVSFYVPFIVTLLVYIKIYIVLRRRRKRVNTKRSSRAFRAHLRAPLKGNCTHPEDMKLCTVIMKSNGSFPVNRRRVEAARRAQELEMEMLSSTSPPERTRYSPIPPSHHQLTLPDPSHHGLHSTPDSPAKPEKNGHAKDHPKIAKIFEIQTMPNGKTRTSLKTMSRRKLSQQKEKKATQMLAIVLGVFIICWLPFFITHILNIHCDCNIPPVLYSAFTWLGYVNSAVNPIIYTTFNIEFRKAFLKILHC
Assay: G protein Gαi1-γ9 dissociation BRET, dopamine D2 receptor functional activity
Format: cell-based
Settings: HEK-293T; I-1 to 19 n=3, I-20 to 27 single determination; read-out: Gai1 BRET EC50
Reported pEC50 values follow for various compounds
Units for pEC50: none; it is -log10 of a concentration expressed in mol/L.

// worked examples, pEC50 included
O=C(CCCN1CCN2c3cccc4[nH]cc(c34)CC2C1)c1ccc(F)cc1 (centres unmarked) [Compound I-24] :: 7.94
Cc1noc2cc(OCCCCN3CCN4c5cccc6[nH]cc(c56)CC4C3)ccc12 (centres unmarked) [Compound I-5] :: 8.13
O=c1ccc2ccc(OCCCCN3CCN4c5cccc6[nH]cc(c56)CC4C3)cc2[nH]1 (racemic) [Compound I-2] :: 7.83

-- ask I'd like to know its pEC50. The compound in question is c1cc2c3c(c[nH]c3c1)CC1CN(CCCCOc3ccc4c(c3)OCC4)CCN21 (centres unmarked) [Compound I-6]
-- reply 8.18

-- ask Request: O=C1CCc2ccc(OCCCN3CCN4c5cccc6[nH]cc(c56)CC4C3)cc2N1 (centres unmarked) [Compound I-7]
-- reply 6.86
